biological target: α1C Human Adrenergic Receptor (Homo sapiens); construct: The entire coding region of α1C (1401 bp); expressed in transfected cells; assay: Radioligand binding, [3H]prazosin, cloned human α1C adrenergic receptor; conditions: cloned human receptor, LM(tk-) cell membranes, mean, read-out: PKi alpha-1 1c (converted)
Sequence (P35348 whole entry): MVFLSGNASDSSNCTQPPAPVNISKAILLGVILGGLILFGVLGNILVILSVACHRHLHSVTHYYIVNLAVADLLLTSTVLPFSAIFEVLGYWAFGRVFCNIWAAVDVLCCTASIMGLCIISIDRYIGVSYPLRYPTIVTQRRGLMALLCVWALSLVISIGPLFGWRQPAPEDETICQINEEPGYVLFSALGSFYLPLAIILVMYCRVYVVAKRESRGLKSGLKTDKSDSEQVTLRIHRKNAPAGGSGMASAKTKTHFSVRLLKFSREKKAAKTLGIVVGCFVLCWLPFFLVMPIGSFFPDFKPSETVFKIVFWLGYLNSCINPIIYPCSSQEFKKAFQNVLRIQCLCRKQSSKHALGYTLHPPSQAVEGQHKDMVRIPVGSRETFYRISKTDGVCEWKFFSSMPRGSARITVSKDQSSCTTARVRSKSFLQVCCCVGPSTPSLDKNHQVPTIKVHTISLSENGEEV
ATTRIBUTE MEASURED: log10 of Ki (log10 of the value in nM)
Scale: log10; quantity: Ki; unit before log: nM

> print(dat)
                                   compound  experimental.value
1  CCC1=C(C(N)=O)C(c2ccc([N+](=O)[O-])cc2)C(C(=O)NCCCN2CCC(C(=O)OC)(c3ccccc3)CC2)=C(CCCCN)N1 (stereo not drawn)                0.11

QUERY: Recorded log10 of Ki for CCC1=C(C(=O)NC)C(c2ccc([N+](=O)[O-])cc2)C(C(=O)NCCCN2CCC(C(=O)OC)(c3ccccc3)CC2)=C(CC)N1 (stereo not drawn) , please?
RESULT: 0.52

QUERY: Recorded log10 of Ki for CCC1=C(C(=O)NC)C(c2ccc([N+](=O)[O-])cc2)C(C(=O)NCCCN2CCC(C(=O)OC)(c3ccccc3)CC2)=C(COCCN=[N+]=[N-])N1 (stereo not drawn) , please?
RESULT: 1.22

QUERY: Recorded log10 of Ki for CCC1=C(C(=O)OCCC#N)C(c2ccc([N+](=O)[O-])cc2)C(C(=O)NCCCN2CCC(c3ccccc3)CC2)=C(COC)N1 (stereo not drawn) , please?
RESULT: 0.79

QUERY: Recorded log10 of Ki for CCC1=C(C(=O)NC)C(c2ccc([N+](=O)[O-])cc2)C(C(=O)NCCCN2CCC(c3ccccc3)(c3ccccc3)CC2)=C(COCCN)N1 (stereo not drawn) , please?
RESULT: 0.60

QUERY: Recorded log10 of Ki for CC(=O)C1=C(C)NC(COCCCN)=C(C(=O)NCCCN2CCC(c3ccccc3)(c3ccccc3)CC2)C1c1ccc([N+](=O)[O-])cc1 (stereo not drawn) , please?
RESULT: 0.40

QUERY: Recorded log10 of Ki for CCOC(=O)C1(c2ccccc2)CCN(CCCNC(=O)C2=C(COCCN=[N+]=[N-])NC(CC)=C(C(N)=O)C2c2ccc([N+](=O)[O-])cc2)CC1 (stereo not drawn) , please?
RESULT: 0.73

QUERY: Recorded log10 of Ki for CCOC(=O)C1(c2ccccc2)CCN(CCCNC(=O)C2=C(COCCN)NC(CC)=C(C(N)=O)C2c2ccc([N+](=O)[O-])cc2)CC1 (stereo not drawn) , please?
RESULT: 0.20

QUERY: Recorded log10 of Ki for CC1=C(C(N)=O)C(c2ccc([N+](=O)[O-])cc2)C(C(=O)NCCCN2CCC(C#N)(c3ccccc3)CC2)=C(COCCN)N1 (stereo not drawn) , please?
RESULT: 0.56

QUERY: Recorded log10 of Ki for CCC1=C(C(N)=O)C(c2ccc([N+](=O)[O-])cc2)C(C(=O)NCCCN2CCC(C(=O)OC)(c3ccccc3)CC2)=C(CC)N1 (stereo not drawn) , please?
RESULT: 0.64

QUERY: Recorded log10 of Ki for CCNC(=O)C1=C(CC)NC(COCCN=[N+]=[N-])=C(C(=O)NCCCN2CCC(C(=O)OC)(c3ccccc3)CC2)C1c1ccc([N+](=O)[O-])cc1 (stereo not drawn) , please?
RESULT: 0.94

QUERY: Recorded log10 of Ki for COC(=O)C1=C(C)NC(CCCCN)=C(C(=O)NCCCN2CCC(c3ccccc3)(c3ccccc3)CC2)C1c1ccc([N+](=O)[O-])cc1 (stereo not drawn) , please?
RESULT: 0.10
